assay: Solubility of eplerenone in pure solubilizers at room temperature; format: physicochemical; details: organic solvent or mixture; pure polyethylene glycol 400, room temperature
measure-name: solubility

Exam item: Supply solubility value. Item: "COC(=O)[C@@H]1CC2=CC(=O)CC[C@]2(C)[C@@]23O[C@@H]2C[C@@]2(C)[C@@H](CC[C@@]24CCC(=O)O4)[C@H]13"
Marked response: 3300 to 5700 µg/mL
